# test.description: Stability of the compounds: buffer hydrolysis (half-times, shelf-life)
# Type: physicochemical
# settings: pH 7.4; buffer pH 7.40, ionic strength 0.5, 37°C; read-out: Half-times in buffers at 37°C, T½, pH 7.40 (converted)
Measured half-life of individual entries
Please append the unit to your numeric answer.

Below, 2 molecules whose answers are already recorded.
molecule	half-life
CC[C@H](C(=O)OCc1ccccc1)[C@H](COC(=O)CCCC(=O)OC[C@H](Cc1cncn1C)[C@H](CC)C(=O)OCc1ccccc1)Cc1cncn1C [Example 16, O,O'-Glutaryl (dibenzyl) bispilocarpate]	31.5 days
CCC(=O)OC[C@H](Cc1cncn1C)[C@H](CC)C(=O)OCc1ccc(COC(=O)[C@@H](CC)[C@H](COC(=O)CC)Cc2cncn2C)cc1	16.7 days

half-life recorded for this molecule, CCCCC(=O)OC[C@H](Cc1cncn1C)[C@H](CC)C(=O)OCc1ccccc1 [valeryl, benzyl, reference compound] , is 48.7 days
